Below, each of the compounds is paired with its reported pIC50 value.
ASSAY TEXT: Cytotoxicity against human GES-1 cells after 48 hrs by MTT assay
Format: cell-based
MEASUREMENT CONDITIONS: GES1, 48 h
Interpret pIC50 as the negative base-10 log of the concentration measured in mol/L.

Kindly note the recorded pIC50 for O=c1[nH]cc(F)c(=O)[nH]1 [FLUOROURACIL] , which is 4.51

Kindly note the recorded pIC50 for COc1cccc2c1C(=O)c1c(O)c3c(c(O)c1C2=O)C[C@@](O)(C(=O)CO)C[C@@H]3O[C@H]1C[C@H](N)[C@H](O)[C@H](C)O1 [DOXORUBICIN] , which is 6.28
